Reference source for all entries: PubChem BioAssay AID2315

Assay: A qHTS for Small Molecule Inhibitors of Shiga Toxin; note: 0% is about no effect
Conditions: Vero cells, Shiga toxin protein synthesis inhibition reporter; at 38.7 µM, active compounds read high
The whole screen tested about 290,000 compounds, of which about 27,000 (9.3%) were called active. The entries come from a sample that favours actives as a whole. Where a SMILES comes first, the peptide text is derived from it. Bridges are numbered along the chain shown (N, C = ends).
inhibition values by entry

Previously resolved entries follow.
compound	inhibition
O=C1CCC([N+](=O)[O-])C(c2ccccc2Br)N1 (centres undefined)	4.29% (inactive)
COC(=O)c1ccc(OC(=O)c2nn(C)cc2Cl)c(OC)c1	8.13% (inactive)
CCOc1ccc(N(CC(=O)Nc2cccc(OC)c2)S(C)(=O)=O)cc1	28.6% (inactive)
O=C(C[n+]1cc(Br)cc2ccccc21)c1ccc(F)cc1	-6.12% (inactive)
Cc1ccc(NC(=O)NC(=O)CSc2nnc(-c3ccc(OC(F)F)cc3)n2N)c(C)c1	12.9% (inactive)
COc1ccccc1N(CC(=O)Nc1ccccc1C(=O)N1CCCC1)S(C)(=O)=O	-2.57% (inactive)
CN1C(=O)C2(OCCCO2)c2cc(Cl)ccc21	-14.7% (inactive)
CC1(C)Cc2ccccc2/C(=C/C(=O)c2ccccc2)N1	-3.39% (inactive)

Form field: reported inhibition of CSCC[C@H](NC(=O)N1CCn2c1nc1ccccc12)C(=O)NC1CCCCC1
21.5% (inactive)

Another compound to look at: C[C@@H](O)[C@@H]1NC(=O)[C@H](CCCCN)NC(=O)[C@H](Cc2c[nH]c3ccccc23)NC(=O)[C@H](Cc2ccccc2)NC(=O)[C@H](Cc2ccccc2)NC(=O)[C@H](CC(N)=O)NC(=O)[C@H](CCCCN)NC(=O)[C@@H](NC(=O)[C@@H]2CCCN2)CSSC[C@@H](C(=O)N[C@@H](CCCCN)C(=O)O)NC(=O)[C@H](CO)NC(=O)[C@H](CO)NC(=O)[C@H](Cc2ccccc2)NC1=O (H-PCKNFFWKTFSSCK-OH; disulfide 2-13)
-9.69% (inactive)

Another compound to look at: Cc1ccc(-c2nnc(SC(C)C#N)n2N)cc1 (centres undefined)
12.2% (inactive)

Another compound to look at: COc1ccc(S(=O)(=O)NC(C)C(=O)NCc2ccncc2)cc1Cl (centres undefined)
-1.67% (inactive)

Another compound to look at: CN(C)c1nc(NN)nc(Nc2ccc(F)cc2)n1
-6.82% (inactive)

Another compound to look at: Cc1ccc(C(C(=O)NC2CCCC2)N(Cc2ccco2)C(=O)CCC(=O)Nc2ccccn2)cc1 (centres undefined)
-14.7% (inactive)

Another compound to look at: O=C(NC1Cc2ccccc2C1)c1cc(COc2cccc(C(F)(F)F)c2)on1
-0.154% (inactive)

Another compound to look at: CC(Sc1nnc(CNC(=O)c2ccccc2F)n1C)C(=O)Nc1nccs1 (centres undefined)
-6.1% (inactive)

Another compound to look at: COc1ccc(NC(=O)NCCN2CCN(c3ccc(C)cc3)CC2)c(Cl)c1
-4.91% (inactive)

Another compound to look at: Cc1ccc2c(c1)N(CC(=O)N(Cc1ccccn1)Cc1ccco1)C(=O)C(C(C)C)O2 (centres undefined)
33.8% (active)

Another compound to look at: C=CCn1c(=NC(=O)c2cccs2)sc2cc(NC(C)=O)ccc21
47.4% (active)
